target: ORAI1 (Homo sapiens, UniProt Q96D31); construct: with STIM1 (human, co-expressed); test: whole-cell patch clamp of ICRAC in HEK […] cells stably expressing hORAI1/hSTIM1
Sequence (Q96D31 whole entry): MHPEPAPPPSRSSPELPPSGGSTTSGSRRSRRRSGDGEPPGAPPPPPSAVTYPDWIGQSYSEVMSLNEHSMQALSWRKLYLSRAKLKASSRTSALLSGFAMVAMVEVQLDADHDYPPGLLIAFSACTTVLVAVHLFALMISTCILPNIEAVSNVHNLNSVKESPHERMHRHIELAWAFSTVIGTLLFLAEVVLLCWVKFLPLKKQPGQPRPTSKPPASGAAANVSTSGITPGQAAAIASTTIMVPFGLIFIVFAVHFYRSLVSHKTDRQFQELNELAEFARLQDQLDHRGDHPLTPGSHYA
Sequence (Q13586 23-685 partner): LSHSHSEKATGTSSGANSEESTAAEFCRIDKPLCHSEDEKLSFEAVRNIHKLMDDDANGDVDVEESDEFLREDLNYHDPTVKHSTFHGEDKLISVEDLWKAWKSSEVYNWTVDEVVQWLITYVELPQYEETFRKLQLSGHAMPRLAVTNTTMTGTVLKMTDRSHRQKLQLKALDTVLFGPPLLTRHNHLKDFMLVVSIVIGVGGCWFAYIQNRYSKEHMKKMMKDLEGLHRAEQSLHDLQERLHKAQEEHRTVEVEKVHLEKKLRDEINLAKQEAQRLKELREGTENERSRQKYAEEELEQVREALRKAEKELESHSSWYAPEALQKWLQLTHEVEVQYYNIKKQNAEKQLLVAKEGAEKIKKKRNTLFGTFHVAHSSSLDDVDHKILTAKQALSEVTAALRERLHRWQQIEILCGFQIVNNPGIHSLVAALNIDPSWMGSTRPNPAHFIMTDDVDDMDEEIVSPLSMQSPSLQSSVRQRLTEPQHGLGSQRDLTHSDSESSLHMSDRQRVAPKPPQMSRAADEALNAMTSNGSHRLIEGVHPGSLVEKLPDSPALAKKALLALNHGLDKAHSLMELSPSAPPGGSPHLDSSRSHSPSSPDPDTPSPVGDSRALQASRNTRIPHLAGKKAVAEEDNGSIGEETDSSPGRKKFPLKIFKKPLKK
observedProperty: IC50

Prompt: Data request, read-out IC50, for Cc1cccc(F)c1C(=O)Nc1cnc(-c2cc3c(cc2Cl)OC(F)(F)O3)cn1
Completion: ~100 nM

Taken from paper PMC4556985.
